# TEST_DESCRIPTION: folding enthalpy; higher = less favourable; fluorescence melt of hairpins on a sequencing array, two-state fit
# MEASUREMENT_CONTEXT: sodium 0.088 M
READOUT_LABEL: folding enthalpy (kcal/mol)
Only the number, expressed in kcal/mol, is required.

Suppose we examine the sequence GGGTACGAAAGTAAGCCC ((((((....)))..))) ; what folding enthalpy value has been reported?
-20.7

// next record CGCGGATAGTCCGCG ((((((...))))))
-40.8

// next record GATCGTTTTAACGATC ((((((....))))))
-42.2

// next record GGATTGACGAAAGTCTCC (((..(((....))))))
-13.7

// next record GGTTCAACGAAAGTTACC (((..(((....))))))
-14.4

// next record GAATTGGGAAACCAATTC (((((((....)))))))
-45

// next record GGCGTACGAAAGTAAGCC (((.(((....))).)))
-35.1

// next record GCTACTGGAAACAGTAAC (.(((((....))))).)
-16

// next record GATCAGGCACCTGATC ((((((....))))))
-41.7

// next record GTAGGCGAAAGCCATAC ((((((....))).)))
-11.2

// next record GCACTCGAAAGAGGATGC ((((((....)))..)))
-22.4

// next record GGACCAGGAAACCGGTCC (((((.(....).)))))
-35.3

====

# TEST_DESCRIPTION: folding enthalpy; higher = less favourable; fluorescence melt of hairpins on a sequencing array, two-state fit
# MEASUREMENT_CONTEXT: sodium 0.088 M
READOUT_LABEL: folding enthalpy (kcal/mol)
Only the number, expressed in kcal/mol, is required.

Suppose we examine the sequence CAATTGAAAAATTG (((((....))))) ; what folding enthalpy value has been reported?
-13.6

// next record GATCCATTTGTGGATC ((((((....))))))
-44.5

// next record GTGCATGGAAACATGCGC (.(((((....))))).)
-21.5

// next record GGATTGGGAAACCAGTCC (((.(((....))).)))
-31.1

// next record GTTAGAGGAAACTTTAAC ((((.((....)).))))
-15.5

// next record GATCCACCACTGGATC ((((((....))))))
-36.9

// next record GCACCTGGAAACAGACGC ((..(((....)))..))
-15.3

// next record GCGTCGCGAAAGCTGCGC (((..((....))..)))
-22.5

// next record GAGGGCGAAAGCCGCCTC ((((((....)))..)))
-9.67

// next record GCAGTCGCGAAAGCGTGC (((..(((....))))))
-14.2

// next record GATCGTCGCGACGATC ((((((....))))))
-37.5

// next record GACGGCGAAAGCCAGTC ((((((....))).)))
-22.7

====

Could you please report measured Tm for the items listed next?
# TEST_DESCRIPTION: melting temperature; fluorescence melt of hairpins on a sequencing array, two-state fit, raised by 9.35 °C to match UV melts
# MEASUREMENT_CONTEXT: sodium 0.088 M
Only the number, expressed in °C, is required.

Suppose we examine the sequence GAACACGAAAGTGCTTTC ((((((....)))..))) ; what Tm value has been reported?
27.8

// next record CGTGATCGGAAACGAACG (((..(((....))))))
28.6

// next record GCGTTGCGAAAGCCCCGC (((..((....))..)))
48.3

// next record GCAACGACGAAAGTCTGC (((..(((....))))))
40.5

// next record GTCCTAGGAAACTAGGAC (((((((....)))))))
57.2

// next record GCCGAGTCGAAAGACGGC (((..(((....))))))
56.6

// next record GCGTGGCGAAAGCATCGC (((..((....))..)))
62.1

// next record CGTGCGGAAACGCGAACG ((((((....)))..)))
47.6

// next record GTATGGAAACATAC (((((....)))))
43.4

// next record GCGATCAGTCGC ((((....))))
49.3

// next record GCCCATCGAAAGATGGC (((.(((....))))))
56.1

// next record GCGAACGAAAGTTTGCGC ((((((....)))..)))
61.8

// next record GTAGGGGAAACCCTAC ((((((....))))))
55.4

// next record GTTGATGAAAATCAAC ((((((....))))))
52.4

// next record GATCATTCAAATGATC ((((((....))))))
47.3

// next record GGGTAGCGAAAGCTGCCC (((.(((....))).)))
69.2

// next record GTGATGGGAAACCGTTAC ((.(.((....)).).))
31

// next record GATCACGTACGTGATC ((((((....))))))
64

// next record GGGCACCGAAAGGTCCCC (((.(((....))).)))
54.7

// next record GTGGGAGAAATCCCAC ((((((....))))))
58.8

// next record GGACAGGAAACTGTCC ((((((....))))))
62.8

// next record GACTTACCGAAAGGTGTC (((..(((....))))))
36.3

// next record GATCTCAGAGGAGATC ((((((....))))))
50.8

// next record GGTATTGGAAACAATACC (((((((....)))))))
56.9

// next record GACCATGGAAACATGGCC (.(((((....))))).)
46

Data origin, for the record: the array DNA melting data of Ke et al. (doi:10.1101/2024.01.08.574731)
